Recorded melting point by entry
metric_name: melting point

> print(dat)
                                    compound    metric.name       data.value
 1    CCCn1nc2c(N)nc3ccccc3c2c1CCCc1cc[nH]c1  melting point    173 to 174 °C
 2  O=C(C1CCN(c2ccncn2)C1)N1CCNCC1 (stereo unspecified)  melting point    129 to 131 °C
 3  Nc1ccc(C(Cc2ccccc2)C(=O)O)cc1 (stereo unspecified)  melting point    196 to 198 °C
 4  CC(C)(C)c1cc(SCc2ccc(C(=O)O)cc2)cc(C(C)(C)C)c1O  melting point           171 °C
 5  CCOC(=O)c1cc2c(C)c(C)cc(N(CC)S(=O)(=O)c3cccs3)c2[nH]1  melting point    134 to 135 °C
 6  CCC(O)CN1CCC(C)C(c2ccc(Cl)cc2)=N1 (stereo unspecified)  melting point  90.5 to 91.5 °C
 7        NC(=O)c1cc(Oc2ccc(Cl)c(Cl)c2)cnc1O  melting point    246 to 249 °C
 8        COc1cc2nc(N)nc(-c3ccccc3Cl)c2cc1OC  melting point    247 to 280 °C
 9  Cc1[nH]c(=O)c(C#N)c2c1CC(c1ccccn1)CC2 (stereo unspecified)  melting point         > 300 °C
10          Cc1cc(C)nc(NC(=O)Cc2ccc(Br)s2)c1  melting point            87 °C
11  CC(=O)N1N=C(c2ccc(N)cc2)c2cc(Cl)c(Cl)cc2CC1C (stereo unspecified)  melting point    242 to 243 °C

* * *

metric_name: melting point

> print(dat)
                                   molecule     data.value
1     N#Cc1nc(Cl)c(-c2c(F)cccc2Cl)c(Cl)c1Br          90 °C
2    CC(=O)OCCCS(=O)(=O)c1ccc(S(N)(=O)=O)s1  103 to 104 °C
3  COc1ccc2c(C3=C(c4cn(C)c5cc([N+](=O)[O-])ccc45)C(=O)NC3=O)cn(C)c2c1  308 to 310 °C
4  COCC1(O)CCN(c2c(F)cc(N3C[C@H](CO)OC3=O)cc2F)CC1  117 to 119 °C
5  CCCCOCCOc1ccc(-c2ccc3c(c2)C=C(C(=O)Nc2ccc4c(c2)nc(S(=O)Cc2cncn2CCC)n4C)CCN3CC(C)C)cc1 (stereo not given)  150 to 151 °C

* * *

This section presents compounds with their documented melting point values.
metric_name: melting point

> print(dat)
                                   compound    metric.name     data.value
1  Cc1cc(NC(=O)C(C)(O)COc2cccc(F)c2F)ccc1[N+](=O)[O-] (stereo not given)  melting point    68 to 73 °C
2     CCCCSc1nnc(-c2ccc([N+](=O)[O-])cc2)s1  melting point         140 °C
3  CC(C)c1nc(CCCOCc2ccccc2)n(CCO)c1Sc1cc(Cl)cc(Cl)c1  melting point  104 to 106 °C
4  CC(C)(C)Oc1ccc(S(=O)(=O)N2c3ccccc3C[C@H]2C(=O)NCCOc2ccc(CC(=O)O)cc2)cc1  melting point    68 to 71 °C
5   CCOc1cc(CCl)cc(OCc2nc(-c3ccccc3)oc2C)c1  melting point    86 to 87 °C
